Taken from PubChem BioAssay (NCATS).

- testedTarget: Metallo-beta-lactamase type 2 (Klebsiella pneumoniae)
- assayExplanation: qHTS to identify inhibitors of the New Delhi Metallo-beta-lactamase (NDM): assay validation screen against the NCATS LOPAC Collection (AID 1794843)
- settings: NDM-1 enzyme, nitrocefin hydrolysis, absorbance 485 nm; series mostly up to 38.4 µM
Records with an inconclusive call do not appear. Active and inactive are the calls of the source. Calls come from the whole dose curve; as a rule, active = well fitted curve in the direction sought with a large enough effect; inconclusive = small, poorly fitted or top-dose-only effect, or another doubt; inactive = no such curve, though single readings can be large or run the other way.
Could you please pick one outcome from this set? active, inactive

Check out these entries, answers already filled in.
molecule	categoryLabel
C[C@]12Cc3cn4c(nc3C=C1CCC1C2CC[C@@]2(C)[C@H]1CC[C@@]2(O)C#N)nc1ccccc14 (stereo partly specified)	inactive
NCCc1c[nH]c2ccc(C(N)=O)cc12	inactive
[Cl-].[Cl][Pt].[NH2-].[NH2-].c1ccncc1	active

Okay, next one:
Returns: the outcome recorded for CCCN1CCc2cc(O)cc3c2[C@H]1Cc1ccc(O)c(O)c1-3 in this assay.
inactive
